System: HepG2 B6 cells (STAT-sPAP reporter)
assay-explanation: OSM-GST mutant driven sPAP production in HepG2 B6 assay
Assay type: cell-based, human
assay-metric: Expt 2 EC50 (ng/mL)
API: value field is a number in ng/mL; no unit string.

| molecule | Expt 2 EC50 (ng/mL) |
| --- | --- |
| (19) L119A: OSM-GST fusion, alanine for Leu 119 (protein, left off: a dimerising Fc or GST; large carriers; small tags and cut ends) AAIGSCSKEYRVLLGQLQKQTDLMQDTSRLLDPYIRIQGLDVPKLREHCRERPGAFPSEETLRGLGRRGFLQTLNATLGCVLHRLADLEQRLPKAQDLERSGLNIEDLEKLQMARPNIAGLRNNIYCMAQLLDNSDTAEPTKAGRGASQPPTPTPASDAFQRKLEGCRFLHGYHRFMHSVGRVFSKWGESPNRSRR | 23 |

In the following, a different molecule is considered.
IN: Recorded Expt 2 EC50 for (15) D22: OSM-GST fusion, alanine for Asp 22 (protein, left off: a dimerising Fc or GST; large carriers; small tags and cut ends) AAIGSCSKEYRVLLGQLQKQTALMQDTSRLLDPYIRIQGLDVPKLREHCRERPGAFPSEETLRGLGRRGFLQTLNATLGCVLHRLADLEQRLPKAQDLERSGLNIEDLEKLQMARPNILGLRNNIYCMAQLLDNSDTAEPTKAGRGASQPPTPTPASDAFQRKLEGCRFLHGYHRFMHSVGRVFSKWGESPNRSRR , please?
OUT: 16
